# Tested on: fondaparinux
# Experiment description: In vivo neutralization of fondaparinux in the rat
# Recorded conditions: fondaparinux 0.5 mg/kg IV, test agent 2 and 5 mg/kg IV
Experimental readout: reduction of Factor Xa (anti-factor Xa) levels after fondaparinux

COc1ccc(NC(=O)[C@@H](CCCNC(=N)N)NC(=O)c2cc(NC(=O)[C@@H](CCCNC(=N)N)NC(=O)c3cc(NC(=O)[C@@H](CCCNC(=N)N)NC(=O)c4cc(NC(=O)[C@H](N)CCCNC(=N)N)ccc4OCC(=O)O)ccc3OC)ccc2OC)cc1C(N)=O : lack of effectiveness
COc1cc(OC)c(C(=O)N[C@H]2CC[C@H](NC(=O)c3cc(C(=O)NCCN(C)C)c(OCCCCCNC(=N)N)cc3OCCCCCNC(=N)N)CC2)cc1C(=O)N[C@H]1CC[C@H](NC(=O)c2cc(C(=O)NCCN(C)C)c(OCCCCCNC(=N)N)cc2OCCCCCNC(=N)N)CC1 : lack of effectiveness

---

# Experiment description: Cytotoxicity colorimetric assay, NIH/3T3
# Format: cell-based, mouse
# Recorded conditions: mouse, NIH/3T3 cells, one hour in serum-free media
Experimental readout: EC50 at 1 h (µg/mL)
Provide the reading as a plain figure in µg/mL.

Which measured EC50 at 1 h value corresponds to "COc1cc(OC)c(C(=O)N[C@H]2CC[C@H](NC(=O)c3cccc(C(=O)N[C@H]4CC[C@H](NC(=O)c5cc(C(=O)NCCN)c(OC)cc5OC)CC4)n3)CC2)cc1C(=O)NCCN" ?
408

---

# Test system: NIH/3T3 cells
# Experiment description: Cytotoxicity colorimetric assay, NIH/3T3
# Type: cell-based, mouse
# Recorded conditions: one hour in serum-free media
Experimental readout: Cytotoxicity 3T3 EC50

Which measured Cytotoxicity 3T3 EC50 value corresponds to COc1ccc(NC(=O)[C@H](CCCNC(=N)N)NC(=O)c2cc(NC(=O)[C@H](CCCNC(=N)N)NC(=O)c3cc(NC(=O)[C@H](CCCNC(=N)N)NC(=O)c4cc(NC(=O)[C@@H](N)CCCNC(=N)N)ccc4OC)ccc3OC)ccc2OCC(=O)O)cc1C(=O)N[C@@H](Cc1c[nH]c2ccccc12)C(N)=O [Compound 311] ?
>1000 µg/mL

Which measured Cytotoxicity 3T3 EC50 value corresponds to COc1ccc(NC(=O)[C@H](CCCCN)NC(=O)c2cc(NC(=O)[C@H](CCCCN)NC(=O)c3cc(NC(=O)[C@H](CCCCN)NC(=O)c4cc(NC(=O)[C@@H](N)CCCCN)ccc4OC)ccc3OC)ccc2OC)cc1C(=O)N[C@@H](Cc1c[nH]c2ccccc12)C(=O)O [Compound 266] ?
848 µg/mL

Which measured Cytotoxicity 3T3 EC50 value corresponds to COc1ccc(NC(=O)[C@@H](CCCNC(=N)N)NC(=O)c2cc(NC(=O)[C@@H](CCCNC(=N)N)NC(=O)c3cc(NC(=O)[C@@H](CCCNC(=N)N)NC(=O)c4cc(NC(=O)[C@H](N)CCCNC(=N)N)ccc4OCC(=O)O)ccc3OC)ccc2OC)cc1C(N)=O [Compound 283] ?
>1000 µg/mL

Which measured Cytotoxicity 3T3 EC50 value corresponds to COc1ccc(NC(=O)[C@@H](CCCNC(=N)N)NC(=O)c2cc(NC(=O)[C@@H](CCCNC(=N)N)NC(=O)c3cc(NC(=O)[C@@H](CCCNC(=N)N)NC(=O)c4cc(NC(=O)[C@H](N)CCCNC(=N)N)ccc4OC)ccc3OC)ccc2OCC(=O)O)cc1C(=O)N[C@H](Cc1c[nH]c2ccccc12)C(N)=O [Compound 305] ?
>1000 µg/mL
